Target: human complement Component 5 (C5) (human, UniProt P01031 19-1676, limits assumed)
Sequence (P01031 19-1676 limits assumed): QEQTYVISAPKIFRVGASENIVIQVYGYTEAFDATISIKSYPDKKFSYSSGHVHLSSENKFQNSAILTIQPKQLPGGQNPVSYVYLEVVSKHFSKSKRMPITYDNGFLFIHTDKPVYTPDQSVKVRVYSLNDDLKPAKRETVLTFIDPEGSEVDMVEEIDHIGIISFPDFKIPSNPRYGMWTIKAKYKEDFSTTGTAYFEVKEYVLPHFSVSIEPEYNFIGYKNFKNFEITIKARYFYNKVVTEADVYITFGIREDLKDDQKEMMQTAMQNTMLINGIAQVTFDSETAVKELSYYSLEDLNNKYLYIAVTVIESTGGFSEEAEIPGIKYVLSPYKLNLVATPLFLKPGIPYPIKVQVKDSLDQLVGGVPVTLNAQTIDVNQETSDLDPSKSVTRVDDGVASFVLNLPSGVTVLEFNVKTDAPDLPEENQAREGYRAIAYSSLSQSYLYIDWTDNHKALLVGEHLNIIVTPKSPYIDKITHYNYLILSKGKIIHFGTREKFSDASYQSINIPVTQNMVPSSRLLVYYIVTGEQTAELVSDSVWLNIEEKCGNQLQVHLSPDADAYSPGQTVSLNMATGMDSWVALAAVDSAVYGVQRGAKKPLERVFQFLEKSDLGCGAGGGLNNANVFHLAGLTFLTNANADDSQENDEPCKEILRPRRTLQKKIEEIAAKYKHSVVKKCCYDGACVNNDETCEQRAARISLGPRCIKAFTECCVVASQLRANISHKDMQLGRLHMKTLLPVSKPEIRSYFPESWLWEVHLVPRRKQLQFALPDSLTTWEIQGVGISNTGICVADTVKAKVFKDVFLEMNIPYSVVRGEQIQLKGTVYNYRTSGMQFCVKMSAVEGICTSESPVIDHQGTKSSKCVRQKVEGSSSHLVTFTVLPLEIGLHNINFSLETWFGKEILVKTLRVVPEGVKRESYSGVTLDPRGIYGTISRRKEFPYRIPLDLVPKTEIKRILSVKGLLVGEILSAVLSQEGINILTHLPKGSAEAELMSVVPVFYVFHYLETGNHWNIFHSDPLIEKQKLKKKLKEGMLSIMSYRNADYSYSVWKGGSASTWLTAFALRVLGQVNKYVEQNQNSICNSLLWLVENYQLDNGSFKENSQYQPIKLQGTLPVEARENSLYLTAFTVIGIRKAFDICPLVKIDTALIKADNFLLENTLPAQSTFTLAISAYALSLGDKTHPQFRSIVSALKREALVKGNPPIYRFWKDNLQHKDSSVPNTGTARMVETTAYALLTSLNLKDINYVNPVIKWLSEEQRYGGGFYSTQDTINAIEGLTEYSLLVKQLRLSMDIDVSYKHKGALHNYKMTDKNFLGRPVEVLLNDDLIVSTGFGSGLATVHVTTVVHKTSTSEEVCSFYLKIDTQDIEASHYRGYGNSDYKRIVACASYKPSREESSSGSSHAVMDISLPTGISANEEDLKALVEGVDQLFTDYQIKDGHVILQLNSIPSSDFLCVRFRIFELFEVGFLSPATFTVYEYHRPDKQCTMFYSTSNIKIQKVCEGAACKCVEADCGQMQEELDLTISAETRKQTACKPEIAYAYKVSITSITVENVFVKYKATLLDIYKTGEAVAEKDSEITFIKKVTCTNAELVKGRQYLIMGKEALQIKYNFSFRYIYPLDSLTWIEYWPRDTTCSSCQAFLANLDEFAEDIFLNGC
Assay: cell-based or functional assay
Entries and their IC50 (read off the curve), % Inhibition values follow.
Metric Name: IC50 (read off the curve), % Inhibition

binder="H5L2-IgG (antibody, V domains shown) VH: QVQLKQSGAEVKKPGASVKVSCKASGYTFTDEYMNWVRQAPGKSLEWMGYINPNNGGADYNQKFQGRVTMTVDQSISTAYMELSRLRSDDTAVYFCARLGYSNPYFDFWGQGTLVTVSS VL: DIVLTQSPATLSLSPGERATLSCRASQDVNTAVAWYQQKPDQSPKLLIYWASTRHTGVPARFTGSGSGTDYTLTISSLQPEDFAVYFCQQHHVSPWTFGGGTKVEIK" meas_value="~3 µg/mL"
binder="H5L1-IgG (antibody, V domains shown) VH: QVQLKQSGAEVKKPGASVKVSCKASGYTFTDEYMNWVRQAPGKSLEWMGYINPNNGGADYNQKFQGRVTMTVDQSISTAYMELSRLRSDDTAVYFCARLGYSNPYFDFWGQGTLVTVSS VL: DIVLTQSPDSLAVSLGERATINCKASQDVNTAVAWYQQKPDQSPKLLIYWASTRHTGVPARFTGSGSGTDYTLTISSLQAEDVAVYFCQQHHVSPWTFGGGTKVEIK" meas_value="~2 µg/mL"
